# Tested on: SK-MEL-5 melanoma
# Method notes: NCI-60 one-dose screen, 48 h
# Measurement setup: 10 µM unless noted
This is part of a sample that, as a whole, favours compounds with a hit. Of some 83,000 tested, about 20% had one in any assay. Activity calls are given as the source filed them. How the source made its calls: active means growth percent below 10; inactive means the rest.
The reply should name one outcome from active, inactive

# example entries with known answers
Compound: NC(CCl)CCl
Label: inactive
--
Compound: O=[N+]([O-])/C=C\c1ccc(Cl)c(Cl)c1
Label: inactive
--
Compound: CN(C)C(=O)Oc1ccc(Br)cc1
Label: inactive
--
Compound: CN(C)C(=O)Oc1ccccc1-c1ccccc1
Label: inactive
--
Compound: Nc1nc([Se])c2ncn(C3OC(CO)C(O)C3O)c2n1 (configuration not stated)
Label: inactive
--
Compound: Cc1cc(N(CCCl)CCCl)ccc1/C=N\NC(=O)c1ccncc1
Label: inactive
--
Compound: C1CCC2(CC1)OOCNCOO2
Label: inactive
--
Compound: C/C(=C\c1ccn(-c2ccc(N)c(F)c2)n1)[C@@H]1C[C@@H]2O[C@]2(C)CCC[C@H](C)[C@H](O)[C@@H](C)C(=O)C(C)(C)[C@@H](O)CC(=O)O1
Label: inactive
--
Compound: CCNc1nc(Cl)nc(NCC)n1
Label: inactive
--
Compound: CCC(CC)CC1(C)CC2(C)CCOC2OO1 (configuration not stated)
Label: inactive

Challenge: Would you mind telling me which call this test gave `COC(=O)[C@@H](C)C[C@H](Cc1ccccc1)NC(=O)c1csc([C@@H](C[C@H](C(C)C)N(C)C(=O)C2(NC(=O)[C@H]3CCCCN3C)CCC2)OC(C)=O)n1` ?
Response given: active

Challenge: Would you mind telling me which call this test gave O=C1C2CCC1C(N1CCCC1)CC2 (configuration not stated) ?
Response given: inactive
